These measurements were taken from patent US8426588B2.

Listing: pIC50 of selected compounds
- measurement-target: integrin α4β1 (Homo sapiens, UniProt P05556+P13612)
- Construct: cell strain Jurkat (ATCC TIB-152) of human T cells, known to express integrin α4β1; endogenous in cells
- Sequence (P13612 34-1032): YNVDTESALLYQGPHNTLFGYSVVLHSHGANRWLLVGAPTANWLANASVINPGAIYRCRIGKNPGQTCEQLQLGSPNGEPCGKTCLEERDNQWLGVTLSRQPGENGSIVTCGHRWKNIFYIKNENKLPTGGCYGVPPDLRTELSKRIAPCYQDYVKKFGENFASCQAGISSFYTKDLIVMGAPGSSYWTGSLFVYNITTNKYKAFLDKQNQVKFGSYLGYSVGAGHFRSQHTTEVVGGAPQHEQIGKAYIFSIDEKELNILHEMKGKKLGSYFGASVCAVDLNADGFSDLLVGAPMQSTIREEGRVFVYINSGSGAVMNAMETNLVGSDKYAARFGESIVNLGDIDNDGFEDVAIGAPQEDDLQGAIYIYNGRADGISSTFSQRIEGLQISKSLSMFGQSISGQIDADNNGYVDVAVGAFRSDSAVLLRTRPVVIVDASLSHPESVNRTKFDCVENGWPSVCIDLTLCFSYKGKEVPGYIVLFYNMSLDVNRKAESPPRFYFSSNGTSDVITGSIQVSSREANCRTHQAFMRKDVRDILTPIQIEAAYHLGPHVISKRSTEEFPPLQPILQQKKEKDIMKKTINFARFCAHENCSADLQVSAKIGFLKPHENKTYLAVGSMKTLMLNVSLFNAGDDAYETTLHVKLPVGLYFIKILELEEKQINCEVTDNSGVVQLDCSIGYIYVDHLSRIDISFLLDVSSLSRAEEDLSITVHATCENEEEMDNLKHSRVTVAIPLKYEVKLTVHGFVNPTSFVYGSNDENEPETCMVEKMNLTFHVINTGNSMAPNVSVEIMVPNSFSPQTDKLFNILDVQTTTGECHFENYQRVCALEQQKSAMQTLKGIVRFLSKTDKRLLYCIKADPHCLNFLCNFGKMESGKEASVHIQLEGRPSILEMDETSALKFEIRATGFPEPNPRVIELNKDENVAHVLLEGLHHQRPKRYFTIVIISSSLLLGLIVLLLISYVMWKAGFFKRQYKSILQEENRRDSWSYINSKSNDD
- Sequence (P05556 21-798): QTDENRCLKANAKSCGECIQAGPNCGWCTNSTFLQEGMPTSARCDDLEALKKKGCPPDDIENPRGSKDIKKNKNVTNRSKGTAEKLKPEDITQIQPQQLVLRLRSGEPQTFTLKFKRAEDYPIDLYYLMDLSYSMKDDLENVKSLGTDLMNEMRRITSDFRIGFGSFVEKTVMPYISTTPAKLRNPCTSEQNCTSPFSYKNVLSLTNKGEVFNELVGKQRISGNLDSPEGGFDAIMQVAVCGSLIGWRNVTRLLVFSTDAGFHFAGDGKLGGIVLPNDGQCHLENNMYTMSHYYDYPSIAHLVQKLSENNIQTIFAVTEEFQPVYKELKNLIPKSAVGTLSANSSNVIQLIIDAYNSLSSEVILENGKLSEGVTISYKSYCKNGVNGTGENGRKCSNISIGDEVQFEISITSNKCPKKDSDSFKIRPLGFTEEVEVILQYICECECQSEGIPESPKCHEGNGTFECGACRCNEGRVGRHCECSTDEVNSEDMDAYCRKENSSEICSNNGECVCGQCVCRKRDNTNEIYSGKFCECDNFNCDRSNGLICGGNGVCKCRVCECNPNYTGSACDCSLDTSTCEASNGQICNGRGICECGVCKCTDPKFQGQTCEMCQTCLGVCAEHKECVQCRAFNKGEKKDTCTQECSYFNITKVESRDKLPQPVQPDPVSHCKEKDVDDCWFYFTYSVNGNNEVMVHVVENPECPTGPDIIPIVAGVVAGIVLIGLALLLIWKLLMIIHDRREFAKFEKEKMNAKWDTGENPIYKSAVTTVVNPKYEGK
- run-description: VCAM antagonist activity (VCAM-1/α4β1 binding assay), Jurkat cells binding to VCAM-1
- reported-conditions: Jurkat human T cells binding to recombinant human VCAM-1; read-out: VCAM antagonistic activity (IC50) α4β1
pIC50: −log10 of the molar value.
quantity-name: pIC50

- smiles-notation: "O=C(N[C@@H](Cc1ccc(-n2c(=O)oc3ccccc3c2=O)cc1)C(=O)O)c1c(Cl)cccc1Cl"
  value-measured: 6.25
- smiles-notation: "Cn1c(=O)n(-c2ccc(C[C@H](NC(=O)c3c(Cl)cccc3Cl)C(=O)O)cc2)c(=O)c2c(Cl)ccc(Cl)c21"
  value-measured: 7.47
- smiles-notation: "O=C(N[C@@H](Cc1ccc(-n2c(=O)[nH]c3ccc(Cl)cc3c2=O)cc1)C(=O)O)c1c(Cl)cccc1Cl"
  value-measured: 5.70
- smiles-notation: "Cc1cccc2c(=O)n(-c3ccc(C[C@H](NC(=O)c4c(Cl)cccc4Cl)C(=O)O)cc3)c(=O)[nH]c12"
  value-measured: 5.75
- smiles-notation: "O=C(N[C@@H](Cc1ccc(-n2c(=O)[nH]c3cc(C(F)(F)F)ccc3c2=O)cc1)C(=O)O)c1c(Cl)cccc1Cl"
  value-measured: 5.93
- smiles-notation: "Cn1c(=O)n(-c2ccc(C[C@H](NC(=O)c3c(Cl)cccc3Cl)C(=O)O)cc2)c(=O)c2cccc(Cl)c21"
  value-measured: 6.95
- smiles-notation: "Cc1cccc(C)c1C(=O)N[C@@H](Cc1ccc(-n2c(CCl)nc3ccccc3c2=O)cc1)C(=O)O"
  value-measured: 5.37
- smiles-notation: "Cn1c(=O)n(-c2ccc(C[C@H](NC(=O)c3c(Cl)cccc3Cl)C(=O)O)cc2)c(=O)c2cc(Cl)cc(Cl)c21"
  value-measured: 6.73
- smiles-notation: "CCSc1nc2ccccc2c(=O)n1-c1ccc(C[C@H](NC(=O)c2c(Cl)cccc2Cl)C(=O)O)cc1"
  value-measured: 5.68
- smiles-notation: "CSc1nc2ccccc2c(=O)n1-c1ccc(C[C@H](NC(=O)c2c(Cl)cccc2Cl)C(=O)O)cc1"
  value-measured: 5.72
- smiles-notation: "CC(C)Cn1c(=O)n(-c2ccc(C[C@H](NC(=O)c3c(Cl)cccc3Cl)C(=O)O)cc2)c(=O)c2cc([N+](=O)[O-])ccc21"
  value-measured: 5.94
- smiles-notation: "Cc1cccc2c1c(=O)n(-c1ccc(C[C@H](NC(=O)c3c(Cl)cccc3Cl)C(=O)O)cc1)c(=O)n2C"
  value-measured: 7.82
- smiles-notation: "Cc1nc2ccccc2c(=O)n1-c1ccc(C[C@H](NC(=O)c2c(Cl)cccc2Cl)C(=O)O)cc1"
  value-measured: 6.20
- smiles-notation: "COc1ccc2c(c1)c(=O)n(-c1ccc(C[C@H](NC(=O)c3c(Cl)cccc3Cl)C(=O)O)cc1)c(=O)n2C"
  value-measured: 7.51
- smiles-notation: "O=C(N[C@@H](Cc1ccc(-n2c(=O)c3cc([N+](=O)[O-])ccc3n(Cc3ccccc3)c2=S)cc1)C(=O)O)c1c(Cl)cccc1Cl"
  value-measured: 5.25
- smiles-notation: "O=C(N[C@@H](Cc1ccc(-n2c(=O)[nH]c3nccnc3c2=O)cc1)C(=O)O)c1c(Cl)cccc1Cl"
  value-measured: 6.02
- smiles-notation: "O=C(N[C@@H](Cc1ccc(-n2c(=O)c3cc([N+](=O)[O-])ccc3n(C3CCCC3)c2=O)cc1)C(=O)O)c1c(Cl)cccc1Cl"
  value-measured: 6.11
- smiles-notation: "Cc1cccc2[nH]c(=O)n(-c3ccc(C[C@H](NC(=O)c4c(Cl)cccc4Cl)C(=O)O)cc3)c(=O)c12"
  value-measured: 5.61
- smiles-notation: "Cn1c(=O)n(-c2ccc(C[C@H](NC(=O)[C@H]3CC[C@H](C(=O)O)CC3)C(=O)O)cc2)c(=O)c2ccccc21"
  value-measured: 6.66
- smiles-notation: "CCc1nc2ccccc2c(=O)n1-c1ccc(C[C@H](NC(=O)c2c(Cl)cccc2Cl)C(=O)O)cc1"
  value-measured: 5.62
- smiles-notation: "O=C(O)Cn1c(=O)n(-c2ccc(C[C@H](NC(=O)c3c(Cl)cccc3Cl)C(=O)O)cc2)c(=O)c2ccccc21"
  value-measured: 6.96
